Biological target: Histone deacetylase 2 (Homo sapiens)
Sequence (Q92769 whole entry): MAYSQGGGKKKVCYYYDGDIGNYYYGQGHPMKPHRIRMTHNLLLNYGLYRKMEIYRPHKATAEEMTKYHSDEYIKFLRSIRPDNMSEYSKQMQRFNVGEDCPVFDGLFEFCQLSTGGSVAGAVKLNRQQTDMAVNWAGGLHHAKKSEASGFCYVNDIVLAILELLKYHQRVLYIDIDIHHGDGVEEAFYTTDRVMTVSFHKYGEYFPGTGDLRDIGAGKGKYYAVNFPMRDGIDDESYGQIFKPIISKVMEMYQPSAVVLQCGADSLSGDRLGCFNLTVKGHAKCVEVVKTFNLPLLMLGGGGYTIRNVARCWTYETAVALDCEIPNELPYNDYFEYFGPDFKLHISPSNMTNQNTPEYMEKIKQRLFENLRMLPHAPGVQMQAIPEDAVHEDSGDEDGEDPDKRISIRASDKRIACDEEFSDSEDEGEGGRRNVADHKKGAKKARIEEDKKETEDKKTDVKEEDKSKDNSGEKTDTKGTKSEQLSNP
Assay: Inhibition of full length recombinant human C-terminal His-tagged HDAC2 expressed in baculovirus infected Sf9 cells using fluorogenic HDAC substrate after 30 mins by fluorescence analysis
VALUE_TYPE: pIC50
Quick note: pIC50 means taking -log10 of the concentration in moles per liter.

| CHEMICAL_STRUCTURE | RECORDED_VALUE |
| --- | --- |
| CCCc1nn(C)c2c(=O)[nH]c(-c3cc(NC4CCN(c5ncc(C(=O)NO)cn5)CC4)ccc3OCC)nc12 | 6.31 |
| CCCc1nn(C)c2c(=O)[nH]c(-c3cc(S(=O)(=O)N4CCC(CCC(=O)NO)CC4)ccc3OCC)nc12 | 5.71 |
| CCCc1nn(C)c2c(=O)[nH]c(-c3cc(S(=O)(=O)N4CCN(Cc5ccc(/C=C/C(=O)NO)cc5)CC4)ccc3OCC)nc12 | 5.16 |

Turning now to a further record.
pIC50 reading for "CCCc1nn(C)c2c(=O)[nH]c(-c3cc(-c4ccc(C(=O)NO)cn4)ccc3OCC)nc12" : 5.73

###

Assay: Lipophilicity, log D of the compound at pH 7.4
Assay type: physicochemical
Conditions: buffer
VALUE_TYPE: logD
Note: the reply should be a number with no unit written.

logD reading for "O=C(CCCCCCC(=O)Nc1ccccc1)NO" : 2

###

Target: Histone deacetylase 1 (Homo sapiens)
Sequence (Q13547 whole entry): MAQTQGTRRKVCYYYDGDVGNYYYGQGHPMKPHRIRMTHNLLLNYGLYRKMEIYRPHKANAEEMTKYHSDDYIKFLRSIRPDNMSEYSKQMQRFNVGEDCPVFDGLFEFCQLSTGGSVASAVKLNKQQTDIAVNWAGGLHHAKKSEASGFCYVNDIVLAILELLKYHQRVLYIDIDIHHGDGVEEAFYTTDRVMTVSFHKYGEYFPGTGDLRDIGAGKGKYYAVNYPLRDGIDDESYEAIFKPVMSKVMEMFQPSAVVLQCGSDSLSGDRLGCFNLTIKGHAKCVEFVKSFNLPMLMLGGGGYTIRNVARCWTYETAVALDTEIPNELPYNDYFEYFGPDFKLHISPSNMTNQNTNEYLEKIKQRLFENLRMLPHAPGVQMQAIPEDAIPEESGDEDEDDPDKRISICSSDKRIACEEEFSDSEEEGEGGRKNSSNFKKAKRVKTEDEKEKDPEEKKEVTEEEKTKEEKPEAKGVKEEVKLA
Assay: Inhibition of full length recombinant human C-terminal His/Flag-tagged HDAC1 expressed in baculovirus infected Sf9 cells using fluorogenic HDAC substrate after 30 mins by fluorescence analysis
VALUE_TYPE: IC50

Field: example entries. Status: answers known.
| CHEMICAL_STRUCTURE | EXPERIMENTAL_SYSTEM | IC50 |
| --- | --- | --- |
| CCCc1nn(C)c2c(=O)[nH]c(-c3cc(CC(=O)NO)ccc3OCC)nc12 | Histone deacetylase 1 (Homo sapiens) | > 20 µM |
| CCCc1nn(C)c2c(=O)[nH]c(-c3cc(CC4CCN(CCC(=O)NO)CC4)ccc3OCC)nc12 | Histone deacetylase 1 (Homo sapiens) | > 20 µM |

IC50 reading for "CCCc1nn(C)c2c(=O)[nH]c(-c3cc(-c4ccc(C(=O)NO)o4)ccc3OCC)nc12" : > 20 µM

###

Target: Protein deacetylase HDAC6 (Homo sapiens)
Sequence (Q9UBN7 whole entry): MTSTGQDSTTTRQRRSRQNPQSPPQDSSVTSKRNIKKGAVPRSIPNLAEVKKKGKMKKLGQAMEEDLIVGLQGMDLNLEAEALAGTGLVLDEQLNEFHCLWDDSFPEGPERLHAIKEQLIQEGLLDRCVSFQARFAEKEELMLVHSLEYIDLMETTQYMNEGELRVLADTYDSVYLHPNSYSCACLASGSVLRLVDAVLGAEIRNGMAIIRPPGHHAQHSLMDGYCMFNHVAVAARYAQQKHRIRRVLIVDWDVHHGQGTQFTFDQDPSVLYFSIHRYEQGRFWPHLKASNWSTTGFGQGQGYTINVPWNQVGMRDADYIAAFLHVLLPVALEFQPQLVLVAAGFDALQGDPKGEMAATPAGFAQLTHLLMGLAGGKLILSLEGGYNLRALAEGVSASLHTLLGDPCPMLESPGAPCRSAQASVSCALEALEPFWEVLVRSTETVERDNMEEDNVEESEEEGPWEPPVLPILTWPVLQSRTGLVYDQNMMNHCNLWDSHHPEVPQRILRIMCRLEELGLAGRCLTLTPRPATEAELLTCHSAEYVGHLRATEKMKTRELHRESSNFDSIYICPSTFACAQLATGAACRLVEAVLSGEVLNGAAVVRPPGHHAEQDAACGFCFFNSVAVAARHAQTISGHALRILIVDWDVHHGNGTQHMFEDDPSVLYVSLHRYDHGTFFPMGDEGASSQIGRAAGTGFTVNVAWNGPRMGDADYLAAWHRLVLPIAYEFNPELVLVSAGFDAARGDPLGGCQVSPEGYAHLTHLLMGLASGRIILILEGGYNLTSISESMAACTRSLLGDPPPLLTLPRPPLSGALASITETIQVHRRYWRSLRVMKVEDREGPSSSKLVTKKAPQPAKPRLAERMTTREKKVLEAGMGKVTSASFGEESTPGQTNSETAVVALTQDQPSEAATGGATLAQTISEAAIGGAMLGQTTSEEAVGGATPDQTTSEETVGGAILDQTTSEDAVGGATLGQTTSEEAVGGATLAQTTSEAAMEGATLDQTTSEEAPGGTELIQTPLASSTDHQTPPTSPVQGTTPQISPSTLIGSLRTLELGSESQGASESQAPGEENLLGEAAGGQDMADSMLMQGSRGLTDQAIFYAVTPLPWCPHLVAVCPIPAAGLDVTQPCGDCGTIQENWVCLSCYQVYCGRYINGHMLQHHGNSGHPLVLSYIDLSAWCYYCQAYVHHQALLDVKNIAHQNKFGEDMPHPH
Experiment: Inhibition of full length recombinant human N-terminal GST tagged HDAC6 expressed in baculovirus infected Sf9 cells using fluorogenic HDAC substrate after 30 mins by fluorescence analysis
# if measured IC50 < 1000 nM: Condition met  # else: Condition not met

Sample answers from the record:
| CHEMICAL_STRUCTURE | EXPERIMENTAL_SYSTEM | CLASS_LABEL |
| --- | --- | --- |
| CCCc1nn(C)c2c(=O)[nH]c(-c3cc(CC4CCN(c5ncc(C(=O)NO)cn5)CC4)ccc3OCC)nc12 | Protein deacetylase HDAC6 (Homo sapiens) | Condition not met |
| CCCc1nn(C)c2c(=O)[nH]c(-c3cc(-c4ccc(C(=O)NO)nc4)ccc3OCC)nc12 | Protein deacetylase HDAC6 (Homo sapiens) | Condition met |
| CCCc1nn(C)c2c(=O)[nH]c(-c3cc(N4CCC(CCC(=O)NO)CC4)ccc3OCC)nc12 | Protein deacetylase HDAC6 (Homo sapiens) | Condition not met |
| CCCc1nn(C)c2c(=O)[nH]c(-c3cc(NCC4CCN(c5ncc(C(=O)NO)cn5)CC4)ccc3OCC)nc12 | Protein deacetylase HDAC6 (Homo sapiens) | Condition met |

Next:
Input line: For this compound, is IC50 lower than 1000 nM? "CCCc1nn(C)c2c(=O)[nH]c(-c3cc(N4CCC(CC(=O)NO)CC4)ccc3OCC)nc12"
Output line: Condition not met
